tested on: Crude diglycosidase; assay: Examination of temperature in the conversion into isoflavone aglycons by diglycosidase using soybean materials; type: biochemical, Penicillium multicolor IAM7153; details: 30° C., heat treatment of enzyme no, reaction time 0 h
Quick reference for Decomposition efficiency of daidzin family in concentrated soybean protein among some compounds
Property: Decomposition efficiency of daidzin family in concentrated soybean protein

>  <Compound>
CC(=O)OC[C@H]1O[C@@H](Oc2ccc3c(=O)c(-c4ccc(O)cc4)coc3c2)[C@H](O)[C@@H](O)[C@@H]1O [acetyldaidzin, 6″-O-acetyldaidzin]

>  <Recorded measurement>
44.6%

$$$$
>  <Compound>
O=c1c(-c2ccc(O)cc2)coc2cc(O[C@@H]3O[C@H](CO)[C@@H](O)[C@H](O)[C@H]3O)ccc12 [daidzin]

>  <Recorded measurement>
52.3%

$$$$
>  <Compound>
O=c1c(-c2ccc(O)cc2)coc2cc(O)ccc12 [daidzein]

>  <Recorded measurement>
3.0%

$$$$

Ref: patent US7118895B2
